Target: Aβ aggregates in postmortem AD brain homogenates (Homo sapiens)
Details: read-out: Kd = Koff/Kon; derived from kinetic measurement
endpoint-label: Kd (nM)

- CNc1ccc(/C=C/c2ccc(OCCOCCOCCF)nc2)cc1 [^18F-AV-45]: 1.31

* * *

Target: Aβ aggregates in postmortem AD brain homogenates (Homo sapiens, UniProt P05067)
Sequence (P05067 672-713 limits assumed): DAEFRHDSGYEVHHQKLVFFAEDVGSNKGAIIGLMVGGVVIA
Assay: Competitive binding assay against ^18F-AV-45 in postmortem AD brain homogenates
Conditions: read-out: Inhibition constant (Ki) against binding of ^18F-AV-45 to Aβ aggregates, radioligand ^18F-AV-45, 2 h at 37°C
endpoint-label: Ki (nM)

• CC(=O)N(C)c1ccc(/C=C/c2ccc(OCCOCCOCCF)nc2)cc1 [^18F-AV-267] = 398
